- Tested on: L1210
- Assay Explanation: Cytotoxicity against mouse L1210 cells after 3 days by coulter counter analysis
- Format: functional, cell-based
- Reported Conditions: L1210, 72 h
Assay Endpoint: IC50 (nM)

* COc1c(O)c2c(c3cc(C(=O)N4CCc5c4c(O)c(OC)c4[nH]c(C(=O)N6C[C@H]7C[C@@]78C6=CC(=O)c6[nH]cc(C)c68)cc54)[nH]c13)CCN2C(N)=O [(+)-CC-1065] | 0.024

* * *

- System: L1210
- Assay Explanation: Cytotoxicity against mouse L1210 cells
- Type: functional, cell-based
pIC50: −log10 of the molar value.
Assay Endpoint: pIC50

• COC(=O)c1cc2c([nH]1)C(=O)C=C1N(C(=O)c3cc4cc(OC)c(OC)c(OC)c4[nH]3)CC3CC123 (stereo unspecified) [DUOCARMYCIN SA] = 11.00

Values from ChEMBL document CHEMBL3585314
